# assayed_target: Thymidylate kinase (Mycobacterium tuberculosis, UniProt P9WKE1)
# Sequence (P9WKE1 whole entry): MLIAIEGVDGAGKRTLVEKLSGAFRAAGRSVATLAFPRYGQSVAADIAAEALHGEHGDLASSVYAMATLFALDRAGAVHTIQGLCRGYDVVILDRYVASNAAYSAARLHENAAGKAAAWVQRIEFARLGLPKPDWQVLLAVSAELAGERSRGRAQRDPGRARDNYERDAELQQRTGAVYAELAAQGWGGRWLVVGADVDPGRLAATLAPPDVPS
# experiment: Inhibition of Mycobacterium tuberculosis Thymidylate kinase
measured_metric: Ki (µM)
Number in µM, nothing else.

// sample "Cc1cn([C@H]2C[C@@H](O)CO2)c(=O)[nH]c1=O" , its Ki was 18

---

# Test system: Human immunodeficiency virus 1
# experiment: Antiviral activity against Human immunodeficiency virus 1 3B infected in human CEM cells assessed as inhibition of virus-induced giant cell formation after 4 days by microscopic method
# Format: functional, organism-based
# test_context: CCRF-CEM, 96 h
EC50 overview

Record "O=c1ccn([C@H]2C[C@@H](O)CO2)c(=O)[nH]1" , field EC50: > 100 µg/mL

New cases:
Briefly, EC50 measured for "Nc1ccn([C@H]2C[C@@H](O)CO2)c(=O)n1" : > 100 µg/mL

So for "CC(=O)Nc1ccn([C@H]2C[C@@H](O)CO2)c(=O)n1" , the logged EC50 turned out to be > 100 µg/mL

Sure, the documented EC50 for "Nc1ncnc2c1ncn2[C@H]1C[C@@H](O)CO1" is > 100 µg/mL

---

Record set of IC50 for target or system Deoxynucleoside kinase (Drosophila melanogaster, UniProt Q9XZT6).

Let me check: "Cc1cn([C@H]2C[C@@H](O)CO2)c(=O)[nH]c1=O" , system Deoxynucleoside kinase (Drosophila melanogaster, UniProt Q9XZT6), measured IC50 is ≥ 942 µM

Tested on Deoxynucleoside kinase (Drosophila melanogaster, UniProt Q9XZT6), the item "O=c1ccn([C@H]2C[C@@H](O)CO2)c(=O)[nH]1" showed IC50 equal to > 1010 µM

Noted IC50 for "Nc1ncnc2c1ncn2[C@H]1C[C@@H](O)CO1" , tested on Deoxynucleoside kinase (Drosophila melanogaster, UniProt Q9XZT6): > 904 µM

// compound "Nc1ccn([C@H]2C[C@@H](O)CO2)c(=O)n1" , assay Deoxynucleoside kinase (Drosophila melanogaster, UniProt Q9XZT6), IC50 value: > 1010 µM

---

# assayed_target: Thymidine kinase, cytosolic (Homo sapiens, UniProt P04183)
# Sequence (P04183 whole entry): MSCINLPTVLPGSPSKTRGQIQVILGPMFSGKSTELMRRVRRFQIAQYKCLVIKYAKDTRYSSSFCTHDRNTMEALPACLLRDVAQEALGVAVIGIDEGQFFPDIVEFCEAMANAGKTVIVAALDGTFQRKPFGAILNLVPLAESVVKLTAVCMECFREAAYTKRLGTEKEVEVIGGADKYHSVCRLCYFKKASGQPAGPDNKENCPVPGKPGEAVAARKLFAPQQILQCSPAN
# experiment: Inhibition of human recombinant cytosolic TK1 assessed as inhibition of [methyl-3H]dThd phosphorylation after 30 mins by scintillation counting
measured_metric: IC50 (µM)
Write down the numeric answer in µM and omit the unit.

Reported IC50 for "Nc1ccn([C@H]2C[C@@H](O)CO2)c(=O)n1" was 1010
